# procedure.details: HepG2 cytotoxicity, primary screen, cytotoxicity control for P. falciparum antimalarial project, cell-based, ATP luminescence (AID 2303);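 further: 0% = DMSO wells and 100% = digitonin-killed cells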
# settings: HepG2 viability, 24-48 h, at 10 µM, stronger effect = higher value
Consider the following molecules and their measured inhibition readings.
Express your answer in %, writing the number without its unit.

Answered examples (5):
{"columns": ["molecule", "inhibition / %"],
 "data": [
  ["Cc1[nH]c(C)c(-c2ccc(-c3cccc(Cl)c3)nc2)c(=O)c1Br", 10],
  ["CCN1CCN(c2cc(C)c3cc(NC(=O)c4ccc([N+](=O)[O-])c(C)c4)ccc3n2)CC1", 8],
  ["CCCCNCC(O)COc1ccccc1-c1ccc(N/N=C/c2cccc3ccccc23)nn1 (stereo not given)", 38],
  ["COc1ccc(Br)cc1/C=C/C(=O)Nc1ccc2c(c1)CCCN(C)C2", 8],
  ["CCc1ccc(OCCCON2C(N)=NC(N)=NC2(C)C)cc1", 64]
]}

Then this molecule:
get_value(item= O=C(Nc1ccc(-c2csc3nccn23)cc1)c1ccc(Cl)cc1 , readout=inhibition) returns 54
